Biological target: IKZF3 in L363 cells (Homo sapiens, UniProt Q96SW2+Q9UKT9)
Construct: endogenous in cells; host or cells: L363
Sequence (Q9UKT9 whole entry): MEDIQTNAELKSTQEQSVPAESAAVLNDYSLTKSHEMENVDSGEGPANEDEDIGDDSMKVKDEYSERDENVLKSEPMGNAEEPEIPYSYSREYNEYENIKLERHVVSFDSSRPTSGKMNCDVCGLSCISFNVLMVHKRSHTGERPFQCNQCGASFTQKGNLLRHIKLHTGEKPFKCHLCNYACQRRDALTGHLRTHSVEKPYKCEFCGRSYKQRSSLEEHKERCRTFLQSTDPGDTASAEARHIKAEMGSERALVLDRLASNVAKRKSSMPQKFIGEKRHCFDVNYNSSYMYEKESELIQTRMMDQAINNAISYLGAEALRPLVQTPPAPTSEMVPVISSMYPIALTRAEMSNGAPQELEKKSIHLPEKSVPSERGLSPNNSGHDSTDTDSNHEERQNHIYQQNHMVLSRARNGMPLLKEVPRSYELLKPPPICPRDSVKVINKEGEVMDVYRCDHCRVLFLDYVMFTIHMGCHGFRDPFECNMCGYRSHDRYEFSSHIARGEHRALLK
Sequence (Q96SW2 whole entry): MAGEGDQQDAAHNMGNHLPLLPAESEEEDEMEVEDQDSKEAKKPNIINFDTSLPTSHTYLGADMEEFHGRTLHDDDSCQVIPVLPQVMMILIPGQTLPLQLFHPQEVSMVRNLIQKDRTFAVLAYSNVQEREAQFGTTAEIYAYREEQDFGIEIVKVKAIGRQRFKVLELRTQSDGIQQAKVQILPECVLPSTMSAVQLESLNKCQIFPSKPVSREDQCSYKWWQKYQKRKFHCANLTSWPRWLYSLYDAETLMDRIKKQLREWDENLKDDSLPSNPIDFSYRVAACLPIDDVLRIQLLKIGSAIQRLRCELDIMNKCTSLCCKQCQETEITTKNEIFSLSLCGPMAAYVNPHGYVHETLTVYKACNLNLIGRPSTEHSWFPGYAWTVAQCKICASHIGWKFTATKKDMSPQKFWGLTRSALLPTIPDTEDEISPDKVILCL
Sequence (Q16531 whole entry partner): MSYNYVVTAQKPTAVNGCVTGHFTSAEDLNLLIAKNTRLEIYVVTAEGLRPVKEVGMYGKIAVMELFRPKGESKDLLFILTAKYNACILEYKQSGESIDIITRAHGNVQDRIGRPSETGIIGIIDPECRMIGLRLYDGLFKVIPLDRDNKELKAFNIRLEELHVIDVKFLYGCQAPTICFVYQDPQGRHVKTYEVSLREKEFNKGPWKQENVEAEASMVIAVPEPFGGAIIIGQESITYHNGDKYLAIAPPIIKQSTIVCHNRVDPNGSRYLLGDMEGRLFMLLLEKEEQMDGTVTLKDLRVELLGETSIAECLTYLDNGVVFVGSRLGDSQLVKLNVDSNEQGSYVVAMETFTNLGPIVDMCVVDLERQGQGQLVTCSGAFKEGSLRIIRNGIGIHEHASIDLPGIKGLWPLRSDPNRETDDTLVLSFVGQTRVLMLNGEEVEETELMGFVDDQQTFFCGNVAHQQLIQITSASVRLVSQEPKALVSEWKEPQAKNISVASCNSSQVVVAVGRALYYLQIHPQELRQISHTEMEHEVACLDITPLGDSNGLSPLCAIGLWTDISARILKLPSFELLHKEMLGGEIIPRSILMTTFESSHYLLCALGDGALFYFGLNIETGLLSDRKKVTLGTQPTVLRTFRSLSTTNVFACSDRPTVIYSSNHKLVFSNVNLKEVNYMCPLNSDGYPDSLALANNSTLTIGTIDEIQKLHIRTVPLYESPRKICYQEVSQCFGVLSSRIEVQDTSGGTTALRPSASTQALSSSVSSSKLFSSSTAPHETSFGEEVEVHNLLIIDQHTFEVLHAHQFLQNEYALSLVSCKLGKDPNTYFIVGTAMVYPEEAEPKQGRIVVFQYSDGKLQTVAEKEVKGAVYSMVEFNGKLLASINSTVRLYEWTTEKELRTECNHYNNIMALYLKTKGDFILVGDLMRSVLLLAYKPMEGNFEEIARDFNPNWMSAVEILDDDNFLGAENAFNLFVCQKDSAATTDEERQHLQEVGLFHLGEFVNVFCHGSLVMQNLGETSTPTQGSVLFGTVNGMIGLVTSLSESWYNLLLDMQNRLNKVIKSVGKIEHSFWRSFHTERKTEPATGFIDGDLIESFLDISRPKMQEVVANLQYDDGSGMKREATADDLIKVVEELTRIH
Experiment: Degradation of IKZF3 in L363 cells (Western blot)
Format: cell-based
Details: 1000 nM, 16 hours
Experimental: The 24-well cell culture plate was inoculated with 0.95 mL L363 cells (Nanjing Co-bioer) per well with a cell density of 6×10^5 cells/well. […] The total protein concentration in the supernatant of cell lysis was determined by BCA protein quantitative kit (Tiangen). […] The protein map was analyzed by Clinx chemiluminescence analysis software for grayscale values. […] The degradation rate was calculated by comparing with the grayscale correction value of the control group.
Readout Kind: IKZF3 degradation rate (%)

Sample records with IKZF3 degradation rate:
Compound	IKZF3 degradation rate (%)
Nc1cccc2c1C(=O)N(C1CCC(=O)NC1=O)C2=O (stereo not drawn) [Pomalidomide]	98.6
CC(C)(O)c1cc2nn(C3CCN(CCC4CCC5(CC4)CCN(C(=O)c4ccc(F)c(C6CCC(=O)NC6=O)c4)CC5)CC3)cc2cc1NC(=O)c1cccc(C(F)(F)F)n1 (stereo not drawn)	9.8
CC(C)(O)c1cc2nn(C3CCN(CCC4CCC5(CC4)CCN(C(=O)c4ccc(F)c(N6CCC(=O)NC6=O)c4)CC5)CC3)cc2cc1NC(=O)c1cccc(C(F)(F)F)n1	−2.2
CN(CC1CCN(c2cccc3c2C(=O)N(C2CCC(=O)NC2=O)C3=O)CC1)C[C@H]1CC[C@H](n2cc3cc(NC(=O)c4cccc(C(F)(F)F)n4)c(C(C)(C)O)cc3n2)CC1 (stereo partly drawn) [Control group 3, reference compound]	92.8

a = COc1cc2nn(C3CCN(CC4CCN(CCOc5ccc6c(c5)C(=O)N(C5CCC(=O)NC5=O)C6=O)CC4)CC3)cc2cc1NC(=O)c1cccc(C(F)(F)F)n1 (stereo not drawn) [Control group 2, reference compound]
b = CC(C)(O)c1cc2nn(C3CCN(CC4CCC5(CC4)CCN(C(=O)c4ccc(Cl)c(N6CCC(=O)NC6=O)c4)CC5)CC3)cc2cc1NC(=O)c1cccc(C(F)(F)F)n1
Request: Please state the entry with greater IKZF3 degradation rate among a and b . # reply format: chosen label
Result: a
(a: 71.2%, b: 17.8%)

* * *

Target: IRAK4 protein in THP-1 cells (Homo sapiens)
Construct: endogenous in cells; host or cells: THP-1
Sequence (Q9NWZ3 whole entry): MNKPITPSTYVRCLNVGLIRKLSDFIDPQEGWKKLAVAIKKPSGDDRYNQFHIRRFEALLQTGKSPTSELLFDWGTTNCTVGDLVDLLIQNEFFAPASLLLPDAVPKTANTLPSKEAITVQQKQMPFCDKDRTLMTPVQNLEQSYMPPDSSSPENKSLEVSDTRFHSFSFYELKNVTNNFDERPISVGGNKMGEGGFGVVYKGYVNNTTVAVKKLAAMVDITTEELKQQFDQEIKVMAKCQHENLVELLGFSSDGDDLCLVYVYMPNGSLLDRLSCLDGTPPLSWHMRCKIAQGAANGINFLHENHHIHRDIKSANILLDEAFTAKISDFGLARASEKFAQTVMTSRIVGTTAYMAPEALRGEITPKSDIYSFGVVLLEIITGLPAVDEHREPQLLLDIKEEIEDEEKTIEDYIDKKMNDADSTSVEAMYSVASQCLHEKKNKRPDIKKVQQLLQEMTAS
Test: Degradation of IRAK4 in THP-1 cells (Western blot)
Type: cell-based
Conditions: 24 hours, compound 1-3000 nM
Protocol: Each well of the 24-well cell culture plate was inoculated with 0.95 mL THP-1 cells (stem cell bank of Chinese academy of sciences) with a cell density of 5×10^5 cells/well. […] Western blot method: The total protein concentration in the supernatant of cell lysis was determined by BCA protein quantitative kit (Tiangen). […] The protein map was analyzed by Clinx chemiluminescence analysis software for grayscale values. […]
Readout Kind: Dmax (%)

Compound	Dmax [%]
CC(C)(O)c1cc2nn(C3CCN(CCC4CCC5(CC4)CCN(C(=O)c4ccc(F)c(N6CCC(=O)NC6=O)c4)CC5)CC3)cc2cc1NC(=O)c1cccc(C(F)(F)F)n1	98.1
COc1cc2nn([C@H]3CC[C@H](N4CCC5(CCN(C(=O)c6ccc(Cl)c(N7CCC(=O)NC7=O)c6)CC5)CC4)CC3)cc2cc1NC(=O)c1cccc(C(F)(F)F)n1	92.1
CC(C)(O)c1cc2nn(C3CCN(CCC4CCN(C(=O)c5ccc(Cl)c(N6CCC(=O)NC6=O)c5)CC4)CC3)cc2cc1NC(=O)c1cccc(C(F)(F)F)n1	95.2
CN(CC1CCN(c2cccc3c2C(=O)N(C2CCC(=O)NC2=O)C3=O)CC1)C[C@H]1CC[C@H](n2cc3cc(NC(=O)c4cccc(C(F)(F)F)n4)c(C(C)(C)O)cc3n2)CC1 (stereo partly drawn) [Control group 3, reference compound]	75.3
COc1cc2nn([C@H]3CC[C@H](CN4CCC5(CC4)CCN(C(=O)c4ccc(Cl)c(N6CCC(=O)NC6=O)c4)CC5)CC3)cc2cc1NC(=O)c1cccc(C(F)(F)F)n1	97
COc1cc2nn(C3CCN(CCCCCN(C)C(=O)c4ccc(OC)c(N5CCC(=O)NC5=O)c4)CC3)cc2cc1NC(=O)c1cccc(C(F)(F)F)n1	94.3
COc1ccc(C(=O)N2CCC3(CCN(CCN4CCC(n5cc6cc(NC(=O)c7cccc(C(F)(F)F)n7)c(C(C)(C)O)cc6n5)CC4)CC3)CC2)cc1N1CCC(=O)NC1=O	100
CN(CC1CCN(C(=O)c2ccc(Cl)c(N3CCC(=O)NC3=O)c2)CC1)C[C@H]1CC[C@H](n2cc3cc(NC(=O)c4cccc(C(F)(F)F)n4)c(C(C)(C)O)cc3n2)CC1	92.3
CCOc1ccc(C(=O)N2CCC3(CC2)CC(CCN2CCC(n4cc5cc(NC(=O)c6cccc(C(F)(F)F)n6)c(C(C)(C)O)cc5n4)CC2)C3)cc1N1CCC(=O)NC1=O	98
CC(C)(O)c1cc2nn(C3CCN(CC4CC5(CCN(C(=O)c6ccc(Cl)c(N7CCC(=O)NC7=O)c6)CC5)C4)CC3)cc2cc1NC(=O)c1cccc(C(F)(F)F)n1	92.5
CC(C)(O)c1cc2nn(C3CCN(CC4CCC5(CC4)CCN(C(=O)c4ccc(Cl)c(N6CCC(=O)NC6=O)c4)CC5)CC3)cc2cc1NC(=O)c1cccc(C(F)(F)F)n1	97.1
COc1cc2nn([C@H]3CC[C@H](CCN4CCC5(CC4)CCN(C(=O)c4ccc(Cl)c(N6CCC(=O)NC6=O)c4)CC5)CC3)cc2cc1NC(=O)c1cccc(C(F)(F)F)n1	98.9
COc1cc2nn([C@H]3CC[C@H](CN(C)C4CCC5(CC4)CCN(C(=O)c4ccc(Cl)c(N6CCC(=O)NC6=O)c4)CC5)CC3)cc2cc1NC(=O)c1cccc(C(F)(F)F)n1	96.3
COc1cc2nn(C3CCN(CCCC4CCN(C(=O)c5ccc(OC)c(N6CCC(=O)NC6=O)c5)CC4)CC3)cc2cc1NC(=O)c1cccc(C(F)(F)F)n1	99.4
CN(CCC1CCN(C(=O)c2ccc(Cl)c(N3CCC(=O)NC3=O)c2)CC1)C[C@H]1CC[C@H](n2cc3cc(NC(=O)c4cccc(C(F)(F)F)n4)c(C(C)(C)O)cc3n2)CC1	98.1
COc1cc2nn(C3CCN(CCC4CCC5(CC4)CCN(C(=O)c4cccc(N6CCC(=O)NC6=O)c4)CC5)CC3)cc2cc1NC(=O)c1cccc(C(F)(F)F)n1	98.3
COc1cc2nn(C3CCN(CC4CCC5(CC4)CCN(C(=O)c4ccc(Cl)c(N6CCC(=O)NC6=O)c4)CC5)CC3)cc2cc1NC(=O)c1cccc(C(F)(F)F)n1	96.9
COc1cc2nn([C@H]3CC[C@H](CN(C)C4CCN(C5CCN(C(=O)c6ccc(Cl)c(N7CCC(=O)NC7=O)c6)CC5)CC4)CC3)cc2cc1NC(=O)c1cccc(C(F)(F)F)n1	98.3
COc1cc2nn(C3CCN(CCCN4CCN(C(=O)c5ccc(OC)c(N6CCC(=O)NC6=O)c5)CC4)CC3)cc2cc1NC(=O)c1cccc(C(F)(F)F)n1	92.8
COc1ccc(C(=O)N2CCC3(CCN(CCCN4CCC(n5cc6cc(NC(=O)c7cccc(C(F)(F)F)n7)c(C(C)(C)O)cc6n5)CC4)CC3)CC2)cc1N1CCC(=O)NC1=O	99.6
COc1ccc(C(=O)N2CCC(OCCN3CCC(n4cc5cc(NC(=O)c6cccc(C(F)(F)F)n6)c(C(C)(C)O)cc5n4)CC3)CC2)cc1N1CCC(=O)NC1=O	97.6
